Each item that follows carries a reported % Inhibition (FS) 3 μM.
Biological target: β-secretase(BACE) (Homo sapiens)
Construct: purchased Panvera
Sequence (P56817 46-501): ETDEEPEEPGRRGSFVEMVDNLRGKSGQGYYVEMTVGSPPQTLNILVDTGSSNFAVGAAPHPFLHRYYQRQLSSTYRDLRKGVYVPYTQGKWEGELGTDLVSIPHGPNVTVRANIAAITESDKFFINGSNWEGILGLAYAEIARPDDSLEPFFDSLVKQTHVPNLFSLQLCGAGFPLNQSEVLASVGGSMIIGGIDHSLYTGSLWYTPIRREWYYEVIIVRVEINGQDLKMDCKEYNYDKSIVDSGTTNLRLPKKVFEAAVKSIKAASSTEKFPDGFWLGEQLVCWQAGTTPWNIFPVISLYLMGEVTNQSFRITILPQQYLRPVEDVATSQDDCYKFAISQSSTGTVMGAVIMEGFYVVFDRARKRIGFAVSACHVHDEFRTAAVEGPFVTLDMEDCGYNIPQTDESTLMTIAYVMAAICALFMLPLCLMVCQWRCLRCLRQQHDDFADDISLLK
Assay: BACE FS1% Inhibition Assay
Type: biochemical
Conditions: 3 μM test compound; FS1 substrate

# count of solved cases: 4
COc1ccc(Nc2ccc3c(c2)CN(Cc2cccc(C(=O)N(C)C4CCCCC4)c2)C(N)=N3)cc1 [Compound 434]
<30%
CCCC=Cc1ccc2c(c1)CN(CCNC(=O)c1cc(C)oc1C)C(N)=N2 [Compound 587]
<30%
CC(=O)c1cccc(-c2ccc3c(c2)CN(CCNC(=O)c2cc(C)oc2C)C(N)=N3)c1 [Compound 588]
<30%
CN(C(=O)c1cccc(CN2Cc3cc(Oc4cccnc4)ccc3N=C2N)c1)C1CCCCC1 [Compound 230]
<30%

// next item, % Inhibition (FS) 3 μM requested
Lookup: Write down the reported % Inhibition (FS) 3 μM of CN(C(=O)c1ccccc1CN1Cc2cc(Oc3ccccc3)ccc2N=C1N)C1CCCCC1 [Compound 463] , test system: β-secretase(BACE) (Homo sapiens).
Found: <30%
